In this section, each of the compounds is paired with its reported pIC50.
- Tested on: MCF-7 (ER+) breast carcinoma
- protocol-notes: Growth inhibitory assay (MTT, 72 hr)
- Type: cell-based
- experimental-setup: Homo sapiens, MCF7, 72 hr exposure
pIC50: −log10 of the molar value.
reported-metric: pIC50

compound-structure: O=C1C=CC(O)(c2nc3ccccc3o2)C=C1
measured-result: 6.41
--
compound-structure: O=C1C=CC(O)(c2ccccn2)C=C1
measured-result: 6.14
--
compound-structure: O=C1C=CC(O)(c2nc3ccccc3s2)C=C1
measured-result: 6.46
--
compound-structure: O=C1C=CC(O)(c2cccs2)C=C1
measured-result: 6.24
--
compound-structure: O=C1C=CC(O)(c2nc3ccccc3[nH]2)C=C1
measured-result: 6.29
--
compound-structure: O=C1C=CC(O)(c2ccc3ccccc3c2)C=C1
measured-result: 5.89
--
compound-structure: O=C1C=CC(O)(c2cnc3ccccc3c2)C=C1
measured-result: 6.11
--
compound-structure: O=C1C=CC(O)(c2cccc3ccccc23)C=C1
measured-result: 6.11

###

- System: MDA 468 (ER−) breast carcinoma
- protocol-notes: Growth inhibitory assay (MTT, 72 hr)
- Format: cell-based
- experimental-setup: Homo sapiens, 72 hr exposure
- Experimental: Compounds were prepared as 10 mM top stocks, dissolved in DMSO, and stored at 4° C., protected from light, for a maximum period of 4 weeks. […] Absorbance was measured using an Anthos Labtec systems plate reader at 550 nm, and used as a measure of cell viability; thus cell growth or drug toxicity was determined.
pIC50: −log10 of the molar value.
In this section, each of the molecules is paired with its reported pIC50.
reported-metric: pIC50

compound-structure: O=C1C=CC(O)(c2nc3ccccc3s2)C=C1
measured-result: 6.10
//
compound-structure: O=C1C=CC(O)(c2cnc3ccccc3c2)C=C1
measured-result: 5.77
//
compound-structure: O=C1C=CC(O)(c2nc3ccccc3[nH]2)C=C1
measured-result: 6.45
//
compound-structure: O=C1C=CC(O)(c2cccs2)C=C1
measured-result: 6.14
//
compound-structure: O=C1C=CC(O)(c2ccccn2)C=C1
measured-result: 5.82
//
compound-structure: O=C1C=CC(O)(c2ccc3ccccc3c2)C=C1
measured-result: 5.85
//
compound-structure: O=C1C=CC(O)(c2cccc3ccccc23)C=C1
measured-result: 5.75
//
compound-structure: O=C1C=CC(O)(c2nc3ccccc3o2)C=C1
measured-result: 6.46

###

In this section, each of the molecules is paired with its reported log10 mean LC50.
- System: renal sub-panel
- protocol-notes: cells
- Assay type: cell-based
- experimental-setup: Homo sapiens, 60 cell, read-out: mean LC50 in renal sub-panel
reported-metric: log10 mean LC50 (log10 of the value in µM)

molecule: O=C1C=CC(O)(c2cc3ccccc3o2)C=C1
log10 mean LC50: 0.38
--
molecule: COC1(c2nc3ccc(C)cc3s2)C=CC(=NS(=O)(=O)c2ccc(C)cc2)C=C1 (stereo not shown)
log10 mean LC50: 1.03
--
molecule: O=C1C=CC(O)(c2ccccn2)C=C1
log10 mean LC50: 1.05
--
molecule: O=C1C=CC(O)(c2nc3ccccc3o2)C=C1
log10 mean LC50: 0.21
--
molecule: O=C1C=CC(O)(c2cccs2)C=C1
log10 mean LC50: 1.16
--
molecule: O=C1C=CC(O)(c2ccc3ccccc3c2)C=C1
log10 mean LC50: 0.67
--
molecule: O=C1C=CC(O)(c2nc3ccccc3s2)C(Cl)=C1 (stereo not shown)
log10 mean LC50: 0.26
--
molecule: O=C1/C(=C\c2ccccc2)CC(O)(c2nc3ccccc3s2)C/C1=C/c1ccccc1 (stereo not shown)
log10 mean LC50: 1.57
--
molecule: O=C1C=CC(O)(c2cccc3ccccc23)C=C1
log10 mean LC50: 1.23
--
molecule: O=C1C=CC(O)(c2ccccc2)C=C1
log10 mean LC50: 1.22
--
molecule: COC1(c2nc3ccc(F)cc3s2)C=CC(=NS(=O)(=O)c2ccc(C)cc2)C=C1 (stereo not shown)
log10 mean LC50: 1.28
--
molecule: O=C1C=CC(O)(c2nc3ccccc3s2)C=C1
log10 mean LC50: 0.20
--
molecule: COc1ccc2nc(C3(OC)C=CC(=NS(=O)(=O)c4ccc(C)cc4)C=C3)sc2c1 (stereo not shown)
log10 mean LC50: 1.05
--
molecule: O=C1C=CC(O)(c2nccs2)C=C1
log10 mean LC50: 0.96
--
molecule: O=C1C=CC(O)(c2cnc3ccccc3c2)C=C1
log10 mean LC50: 0.98
--
molecule: O=C1C=CC(O)(c2cc3ccccc3s2)C=C1
log10 mean LC50: 0.15
--
molecule: O=C1C=CC(O)(c2cc3ccccc3o2)c2ccccc21 (stereo not shown)
log10 mean LC50: 0.81
--
molecule: COC1(c2nc3c(F)cccc3s2)C=CC(=NS(=O)(=O)c2ccc(C)cc2)C=C1 (stereo not shown)
log10 mean LC50: 1.16

###

compound: O=C1C=CC(O)(c2cc3ccccc3[nH]2)C=C1 [Q03]
melting point / °C: 133
//
compound: O=C1C=CC(O)(c2nc3ccccc3[nH]2)C=C1 [Q07]
melting point / °C: 234
//
compound: CCOC1(c2nc3ccccc3s2)C=CC(=O)C=C1 [Q18]
melting point / °C: 59
//
compound: COc1ccc(C(=O)OC2(c3nc4ccccc4s3)C=CC(=O)C=C2)cc1 [Q35]
melting point / °C: 137
//
compound: O=C1C=CC(OC(=O)c2ccc([N+](=O)[O-])cc2)(c2nc3ccccc3s2)C=C1 [Q34]
melting point / °C: 138

###

- Test system: A549 lung adenocarcinoma
- protocol-notes: Growth inhibitory assay (MTT, 72 hr)
- Type: cell-based
- experimental-setup: Homo sapiens, 72 hr exposure
In this section, each of the compounds is paired with its reported IC50.

compound-structure: O=C1C=CC(O)(c2cc3ccccc3s2)C=C1
IC50 / nM: 2430
--
compound-structure: O=C1C=CC(O)(c2nc3ccccc3o2)C=C1
IC50 / nM: 2330
--
compound-structure: O=C1C=CC(O)(c2cc3ccccc3o2)C=C1
IC50 / nM: 2300
--
compound-structure: O=C1C=CC(O)(c2cc3ccccc3[nH]2)C=C1
IC50 / nM: 6130
--
compound-structure: O=C1C=CC(O)(c2nc3ccccc3s2)C=C1
IC50 / nM: 2350
